The reported measurements were obtained from PubChem BioAssay (NCI).

Below, each entry is listed alongside its reported TGI.
# Tested on: T-47D breast
# protocol notes: NCI tumour cell line growth inhibition, 48 h
Note: unit µM is implicit; provide only the numeric part.

Consider the following illustrative entries.
COc1ccc2c(c1)C(=O)/C(=C/c1ccc(OCC(=O)Nc3nccs3)cc1)O2 ... 31.9
COc1c2c(cc3c1C(=O)c1c(O)cccc1C3=O)CC(O)CC2 (stereo unspecified) ... 93.6

// next item, TGI requested
Challenge: Please give the measured TGI for this compound: c1ccc(C(C2=Nc3cccc4cccc(c34)N2)c2ccccc2)cc1
Response given: 37

###

# Test system: OVCAR-3 ovarian
# protocol notes: NCI tumour cell line growth inhibition, 48 h; in the data active = GI50 below about 0.43 µM; inactive = the rest
Select the correct class. Options are true (active), false (inactive) and nothing else.

Observe how each entry below is paired with its result.
Cc1cnc(NC(=O)C(Cc2ccccc2)NC(=O)c2ccccc2)s1 (centres undefined) ... false
O=C(NCCNc1nccc(-c2c(-c3cccc(O)c3)nc3sccn23)n1)c1ccccc1O ... false

Challenge: Test call, this compound: O=[N+]([O-])c1cnc(Sc2ccncn2)s1
Response given: false

Challenge: Test call, this compound: CCOc1ccccc1-n1c(CN2CCN(C(=O)COc3ccc(CNCCCCCCN4C5CCCC4CC(OC(=O)Nc4cc(C)ccc4OC)C5)cc3)CC2)nc2ccccc2c1=O (centres undefined)
Response given: false

Challenge: Test call, this compound: COc1cc2nc(-c3ccc(C(F)(F)F)cc3)cc(OCCCN3CCC(O)CC3)c2cc1OC
Response given: false

Challenge: Test call, this compound: CC(=O)[O][Hg][c]1c(N)c(C)cc(C)c1F
Response given: false

Challenge: Test call, this compound: COc1cc(C(=O)/C=C/c2sc(Cl)nc2Cl)cc(OC)c1OC
Response given: false

###

# Tested on: T-47D breast
# protocol notes: NCI tumour cell line growth inhibition, 48 h
measured property: TGI

Consider the following illustrative entries.
COc1cc2nc(-c3ccc(C(F)(F)F)cc3)cc(OCCCN3CCC(O)CC3)c2cc1OC ... 19.1 µM
Nc1ccccc1-c1noc(=O)[nH]1 ... > 100 µM
CSC(=N/C=C/c1ccccc1)SC ... > 100 µM
CCOc1ccccc1-n1c(CN2CCN(C(=O)COc3ccc(CNCCCCCCN4C5CCCC4CC(OC(=O)Nc4cc(C)ccc4OC)C5)cc3)CC2)nc2ccccc2c1=O (centres undefined) ... 3.88 µM
O=C(CN1CCN(c2cc3c(cc2F)c(=O)c(C(=O)N/N=C/c2ccccc2O)cn3C2CC2)CC1)N/N=C\c1ccccc1O ... > 100 µM

Challenge: Please give the measured TGI for this compound: NC(=O)C(=CNC(N)=S)C(N)=O
Response given: > 100 µM

Challenge: Please give the measured TGI for this compound: O=C1/C(=C/c2ccc([N+](=O)[O-])cc2)COc2ccc(O)c(O)c21
Response given: 3.65 µM

Challenge: Please give the measured TGI for this compound: COc1ccc2c(c1)CC[C@@H]1[C@@H]2CC[C@]2(C)C(=O)/C(=C/c3ccc(N(C)C)cc3)C[C@@H]12
Response given: > 100 µM

Challenge: Please give the measured TGI for this compound: O=C1c2cccnc2-c2nc(-c3ccccc3[N+](=O)[O-])cc3c2c1nc1ccccc13
Response given: > 100 µM

###

# System: DLD-1 colon
# protocol notes: NCI tumour cell line growth inhibition, 48 h
measured property: TGI

CC(=O)OC1COC(n2c(=S)n(-c3ccc(C)cc3)c(=O)c3ccccc32)C(OC(C)=O)C1OC(C)=O (stereo not given) ... > 100 µM

Challenge: Please give the measured TGI for this molecule: COc1ccc(-c2cc(=O)c3ccc(O)cc3o2)c(OC)c1OC
Response given: > 100 µM

###

Below, each entry is listed alongside its reported TGI.
# Test system: HCT-15 colon
# protocol notes: NCI tumour cell line growth inhibition, 48 h

O=C(Nc1ccccc1)OCCN=C1c2ccccc2C(Br)C(Br)c2ccccc21 (stereo unspecified) ... > 24.2 µM
N#Cc1cccc2c1Sc1ccccc1N2 ... > 100 µM
Nn1c(CCCCCCCCc2nnc(COc3ccc(Cl)cc3Cl)n2N)nnc1COc1ccc(Cl)cc1Cl ... > 100 µM
O=C(CSC(=S)N1CCCCC1)Nc1nc2c(s1)CCCC2 ... > 100 µM
NC(CCc1nc(-c2ccc(Cl)cc2)cs1)C(=O)O (stereo unspecified) ... > 100 µM

// next item, TGI requested
Challenge: Please give the measured TGI for this compound: CC(=O)OC(C)C(=O)C1c2cccc(O)c2C(=O)c2c(O)cc(C)cc21 (stereo unspecified)
Response given: 1.55 µM

###

# System: SF-295 CNS
# protocol notes: NCI tumour cell line growth inhibition, 48 h
Below, each entry is listed alongside its reported TGI.

Consider the following illustrative entries.
CC1OC(OC2C(OC(=O)[C@]34CCC(C)(C)C[C@H]3C3=CC[C@@H]5[C@@]6(C)CC[C@H](OC7OC(C(=O)O)C(O)C(O)C7O)C(C)(C)[C@@H]6CC[C@@]5(C)[C@]3(C)C[C@H]4O)OCC(O)C2O)C(O)C(O)C1OC1OCC(OC2OCC(O)C(O)C2O)C(O)C1O (some centres not stated) ... 22.2 µM
C1=CC2(C=CC13O[C@H](C1CCCCC1)[C@@H](C1CCCCC1)O3)O[C@H](C1CCCCC1)[C@@H](C1CCCCC1)O2 ... > 50 µM
CCOC(=O)C1=C(C)CC2C(=O)OC(=O)C2C1(C)C (configuration not stated) ... > 100 µM

Challenge: Please give the measured TGI for this compound: Cc1c2n(c(=O)[nH]c1=O)C1OC(CO)C(O2)C1N=[N+]=[N-] (configuration not stated)
Response given: > 100 µM

Challenge: Please give the measured TGI for this compound: C[C@@H](CS(C)(=O)=O)Nc1ncc2cc(Oc3ccc(F)cc3F)c(=O)n(C)c2n1
Response given: > 25 µM

Challenge: Please give the measured TGI for this compound: O=C1/C(=C/c2ccc([N+](=O)[O-])cc2)COc2ccc(O)c(O)c21
Response given: 5.17 µM

Challenge: Please give the measured TGI for this compound: Cc1nc2c(nc1C)C(=O)c1ccccc1C2=O
Response given: 4.38 µM

Challenge: Please give the measured TGI for this compound: CC(=O)Nc1oc(C)c(C)c1S(=O)(=O)c1ccc(Cl)cc1
Response given: > 100 µM

###

# Tested on: HOP-92 NSCLC
# protocol notes: NCI tumour cell line growth inhibition, 48 h; in the data active means GI50 below about 0.43 µM; inactive means the rest
Select the correct class. Options are T for active, F for inactive and nothing else.

Observe how each entry below is paired with its result.
Cn1ccnc1C(=O)/C=C/c1ccc(CC(=O)Nc2ccc(Br)cc2)cc1 ... F
COc1ccc(C2=CSc3cc(Cl)c(C)cc3S(=O)(=O)N2C(C)=O)cc1 ... F
O=C(NCCNc1nccc(-c2c(-c3cccc(O)c3)nc3sccn23)n1)c1ccccc1O ... F
O=C1/C(=C/c2ccc([N+](=O)[O-])cc2)COc2ccc(O)c(O)c21 ... F
COc1cc2nc(C)nc(N[C@H](C)c3cc(N)cc(C(F)(F)F)c3)c2cc1O[C@H]1CCOC1 ... T
CC(C)c1ccc(C(C)C(=O)N(CC2=C(C(C)c3ccccn3)c3ccccc3C2)C(C)C)cc1 (configuration not stated) ... F
O=C(CCl)N1c2ccccc2Oc2ccc3ccccc3c21 ... F
COc1c2ccoc2c(/C=C/C=O)c2oc(-c3ccccc3)cc(=O)c12 ... F
COc1cc(/C=C/c2cc(/C=C/c3ccc(O)c(OC)c3)n(C(=O)Nc3ccc(F)cc3)n2)ccc1O ... F
COc1cc2nc(-c3ccc(C(F)(F)F)cc3)cc(OCCCN3CCC(O)CC3)c2cc1OC ... F

Challenge: Test call, this compound: CCCCCCCC(=O)SCC/C=C/[C@@H]1CC(=O)NCc2cccc(n2)C2=N[C@@](C)(CS2)C(=O)N[C@@H](C(C)C)C(=O)N1
Response given: F

Challenge: Test call, this compound: Fc1ccc(Nc2ncnc3ccc(-c4cnc5[nH]ccc5c4)cc23)cc1Cl
Response given: F

###

Below, each entry is listed alongside its reported TGI.
# Test system: NCI/ADR-RES ovarian
# protocol notes: NCI tumour cell line growth inhibition, 48 h
Note: unit µM is implicit; provide only the numeric part.

CN(C)CCCNC1=C(Cl)C(=O)c2ccccc2C1=O ... 31.8

Challenge: Please give the measured TGI for this molecule: Cn1c2ccc([N+](=O)[O-])cc2c(=O)n1Cc1ccccc1F
Response given: 76.3

Challenge: Please give the measured TGI for this molecule: CC1=C(C(=O)Nc2ccc(F)c(Cl)c2)C(c2ccc(Cl)cc2)NC(=O)N1 (configuration not stated)
Response given: 75.2

Challenge: Please give the measured TGI for this molecule: NC(CSC(c1ccccc1)(c1ccccc1)c1ccc2c(c1)OCO2)C(=O)O (configuration not stated)
Response given: 26.8

Challenge: Please give the measured TGI for this molecule: CC1=NN(c2nc(N)nc(/C(C#N)=C/c3ccccc3O)n2)C(C)(C)C1
Response given: 47

Challenge: Please give the measured TGI for this molecule: C=Cc1nc2c(Cl)ncnc2n1Cc1ccccc1
Response given: 23.1

Challenge: Please give the measured TGI for this molecule: O=C(Nc1ccccc1)OCCN=C1c2ccccc2C(Br)C(Br)c2ccccc21 (configuration not stated)
Response given: 19.4

Challenge: Please give the measured TGI for this molecule: Nc1cc2nc3ccccc3sc-2cc1=O
Response given: 16.7

Challenge: Please give the measured TGI for this molecule: COc1cc(C(=O)/C=C/c2sc(Cl)nc2Cl)cc(OC)c1OC
Response given: 4.07

Challenge: Please give the measured TGI for this molecule: COc1ccc(N2CN3OC(=O)N(c4ccc(OC)cc4)[C@@]3(c3ccccc3)C2)cc1
Response given: 32

Challenge: Please give the measured TGI for this molecule: O[C@H]1[C@H]2c3cc4c(cc3CN3CCC(=C[C@@H]1O)[C@H]23)OCO4
Response given: 10.7

Challenge: Please give the measured TGI for this molecule: COc1cc2nc(-c3ccc(C(F)(F)F)cc3)cc(OCCCN3CCC(O)CC3)c2cc1OC
Response given: 22.7

Challenge: Please give the measured TGI for this molecule: O=C(NCCNc1nccc(-c2c(-c3cccc(O)c3)nc3sccn23)n1)c1ccccc1O
Response given: 70.1

Challenge: Please give the measured TGI for this molecule: O=C1c2ccccc2C(=O)c2sc(Nc3cccc(Cl)c3)nc21
Response given: 4.78

Challenge: Please give the measured TGI for this molecule: C/C(=C\CO)CC/C=C(\C)CNc1c(F)c(F)c(F)c(F)c1F
Response given: 86.2
